Target: human cathepsin K (Homo sapiens, UniProt P43235)
Construct: The proform of cathepsin K was converted to mature cathepsin K by brief exposure to pH 4; made in house; host or cells: baculovirus; Trichoplusia ni High Five cells (virus raised in Sf-9)
Assay: Cathepsin K inhibition assay, human recombinant enzyme, fluorogenic substrate Cbz-Phe-Arg-AMC
Format: biochemical
Settings: Table 1, human cathepsin K; read-out: h Cat K IC50
parameter_measured: IC50

Reference set (5 entries):
Measured IC50 for this entry "CCCC[C@H](NC(=O)O[C@@H]1CN(C(=O)Nc2ccc(C(F)(F)F)cc2)CC1(C)C)C(=O)C(=O)N[C@H](C)c1ccccc1" on human cathepsin K (Homo sapiens, UniProt P43235): 1 to 10 nM

Measured IC50 for this entry "CCCC[C@H](NC(=O)O[C@@H]1CN(C(=O)Nc2cc(F)ccc2C)CC1(C)C)C(=O)C(=O)N[C@H](C)c1ccccc1" on human cathepsin K (Homo sapiens, UniProt P43235): 1 to 10 nM

Measured IC50 for this entry "CCCC[C@H](NC(=O)O[C@@H]1CN(C(=O)Nc2ccc(C#N)cc2)CC1(C)C)C(=O)C(=O)N[C@H](C)c1ccccc1" on human cathepsin K (Homo sapiens, UniProt P43235): 10 to 100 nM

Measured IC50 for this entry "CCCC[C@H](NC(=O)O[C@@H]1CN(C(=O)Nc2ccccc2)CC1(C)C)C(=O)C(=O)N[C@H](C)c1ccccc1" on human cathepsin K (Homo sapiens, UniProt P43235): 1 to 10 nM

Measured IC50 for this entry "CCCC[C@H](NC(=O)O[C@@H]1CN(C(=O)Cc2ccc(C(C)(C)C)cc2)CC1(C)C)C(=O)C(=O)N[C@H](C)c1ccccc1" on human cathepsin K (Homo sapiens, UniProt P43235): 10 to 100 nM

Now let's try a different one.
Measured IC50 for this entry "CCCC[C@H](NC(=O)O[C@@H]1CN(C(=O)c2ccc3ccccc3c2)CC1(C)C)C(=O)C(=O)N[C@H](C)c1ccccc1" on human cathepsin K (Homo sapiens, UniProt P43235): 1 to 10 nM

---

Target: human cathepsin V (Homo sapiens)
Sequence (O60911 114-334): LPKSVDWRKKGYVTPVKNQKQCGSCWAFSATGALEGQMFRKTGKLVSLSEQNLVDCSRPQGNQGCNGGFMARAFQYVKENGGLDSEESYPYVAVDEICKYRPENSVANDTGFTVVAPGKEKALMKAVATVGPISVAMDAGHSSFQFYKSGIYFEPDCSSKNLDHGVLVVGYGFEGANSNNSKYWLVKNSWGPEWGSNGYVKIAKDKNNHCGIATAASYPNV
Assay: Cathepsin V inhibition assay, human recombinant enzyme, Cbz-Phe-Arg-AMC
Conditions: Table 2, human cathepsin V; read-out: h Cat V IC50
Let's look at some compounds and their measured IC50.

Form field IC50, entry "CCCC[C@H](NC(=O)O[C@@H]1CN(C(=O)Nc2ccc(C(F)(F)F)cc2)CC1(C)C)C(=O)C(=O)Nc1ccn[nH]1" : 10 to 100 nM

Now let's try a different one.
Form field IC50, entry "CCCC[C@H](NC(=O)O[C@@H]1CN(c2nnc(C(F)(F)F)s2)CC1(C)C)C(=O)C(=O)Nc1ccn[nH]1" : 10 to 100 nM

---

Target: human cathepsin K (Homo sapiens, UniProt P43235)
Construct: The proform of cathepsin K was converted to mature cathepsin K by brief exposure to pH 4; made in house; host or cells: baculovirus; Trichoplusia ni High Five cells (virus raised in Sf-9)
Sequence (P43235 115-329): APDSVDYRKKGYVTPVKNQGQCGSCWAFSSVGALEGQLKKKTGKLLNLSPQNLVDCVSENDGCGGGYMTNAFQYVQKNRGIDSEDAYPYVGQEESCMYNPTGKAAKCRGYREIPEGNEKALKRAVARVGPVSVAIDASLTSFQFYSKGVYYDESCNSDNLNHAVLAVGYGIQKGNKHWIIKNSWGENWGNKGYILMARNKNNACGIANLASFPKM
Test: Cathepsin K inhibition assay, human recombinant enzyme, fluorogenic substrate Cbz-Phe-Arg-AMC
Assay type: biochemical
Conditions: Table 1, human cathepsin K; read-out: h Cat K IC50
pIC50: −log10 of the molar value.
parameter_measured: pIC50

Reference set (3 entries):
Form field pIC50, entry "CCCC[C@H](NC(=O)O[C@@H]1CN(C(=O)Nc2c(C)noc2C)CC1(C)C)C(=O)C(=O)N[C@H](C)c1ccccc1" : 7.00 to 8.00

Form field pIC50, entry "CCCC[C@H](NC(=O)O[C@@H]1CN(C(=O)OCc2cccc(-c3ccccc3)c2C)CC1(C)C)C(=O)C(=O)N[C@H](C)c1ccccc1" : 7.00 to 8.00

Form field pIC50, entry "CCCC[C@H](NC(=O)O[C@@H]1CN(C(=O)c2ccc(-c3ccccc3)cc2)CC1(C)C)C(=O)C(=O)N[C@H](C)c1ccccc1" : 8.00 to 9.00

---
Form field pIC50, entry "CCCC[C@H](NC(=O)O[C@@H]1CN(C(=O)c2ccccc2)CC1(C)C)C(=O)C(=O)N[C@H](C)c1ccccc1" : 7.00 to 8.00

Form field pIC50, entry "CCCC[C@H](NC(=O)O[C@@H]1CN(C(=O)OCc2noc(-c3cccs3)n2)CC1(C)C)C(=O)C(=O)N[C@H](C)c1ccccc1" : 7.00 to 8.00

Form field pIC50, entry CCCCC(NC(=O)O[C@@H]1COCC1(C)C)C(=O)C(=O)N[C@H](C)c1ccccc1 (stereo partly drawn) : 7.00 to 8.00
